Provenance of the data: patent US9102648B1

molecular target: GAL4 DBD-CfEcR(DEF)/VP16AD-MmRXRE (Choristoneura fumiferana, UniProt O77240); test: 13B3 Assay (CHO stable cell line, luciferase reporter); details: read-out: 13B3 EC50; CHO 13B3 stable cell line, luciferase reporter, 48 h; average of two wells
pEC50: −log10 of the molar value.
The following compounds are shown together with reported pEC50 values.

{"compound": "CCc1c(OC)cccc1C(=O)NN(C(=O)c1cc(C)cc(C)c1)C(C)(C)COC(C)=O", "result qualifier": "<", "pEC50": 4.30}
{"compound": "Cc1c(C(=O)NN(C(=O)c2ccccc2[S+](C)[O-])C(C)(C)C)ccc2c1OCCO2 (centres unmarked)", "result qualifier": "<", "pEC50": 4.30}
{"compound": "COc1ccc(C(=O)NN(C(=O)c2ccc(F)cc2Cl)C(C)(C)C)cc1", "result qualifier": "=", "pEC50": 5.30}
{"compound": "Cc1cc(C)cc(C(=O)N(NC(=O)c2cccc([N+](=O)[O-])c2C)C(C)(C)C)c1", "result qualifier": "=", "pEC50": 5.35}
{"compound": "COc1cccc(C(=O)NN(C(=O)c2cc(C)cc(C)c2)C(C)(C)C)c1N", "result qualifier": "=", "pEC50": 5.75}

====

molecular target: GAL4 DBD (1-147)-CfEcR(DEF)/VP16AD-βRXREF-LmUSPEF (Choristoneura fumiferana); test: cell-based; details: maximum fold induction at any concentration relative to that of GS-E ligand; CHO 27-63 cells
metric: 27-63 assay Rel Max FI

{"compound": "CCc1ccc(C(=O)NN(C(=O)c2cc(C)cc(C)c2)C(CC)C(C)(C)C)cc1 (stereo not drawn)", "metric": "27-63 assay Rel Max FI", "observed measurement": 0.808}
{"compound": "CCc1c(C(=O)NN(C(=O)c2ccccc2OC)C(C)(C)C)ccc2c1OCCO2 [RG-115244]", "metric": "27-63 assay Rel Max FI", "observed measurement": 0.785}
{"compound": "CCc1ccc(C(=O)NN(C(=O)c2cc(C)cc(Cl)c2)C(C)(C)C)cc1", "metric": "27-63 assay Rel Max FI", "observed measurement": 0.795}

====

molecular target: GAL4 DBD-CfEcR(DEF)/VP16AD-MmRXRE (Choristoneura fumiferana); assay: 13B3 Assay (CHO stable cell line, luciferase reporter)

{"molecule": "Cc1cc(C)cc(C(=O)N(NC(=O)c2ccc3c(c2C)OCCO3)C(C)(C)C)c1 [RG-102317]", "EC50": "0.345 µM"}
{"molecule": "COc1cccc(C(=O)NN(C(=O)c2cc(C)cc(C)c2)C(C)(C)C)c1COC(C)=O [RG-115225]", "EC50": "0.58 µM"}
{"molecule": "COc1cc(C(=O)N(NC(=O)c2ccc3c(c2C)OCCO3)C(C)(C)C#N)cc(OC)c1C [RG-115092]", "EC50": "0.184 µM"}
{"molecule": "COc1cccc(C(=O)NN(C(=O)c2cc(C)cc(C)c2)C(C)(C)C)c1CSC [RG-115358]", "EC50": "> 50 µM"}
{"molecule": "CCc1ccc(C(=O)NN(C(=O)c2cc(C)cc(C)c2)C(C)(C)C)cc1 [RG-102125]", "EC50": "0.479 µM"}
{"molecule": "COc1ccc(C(=O)N(NC(=O)c2ccc3c(c2C)OCCO3)C(C)(C)C)c(OC)n1 [RG-115517]", "EC50": "0.355 µM"}
{"molecule": "COc1cccc(C(=O)NN(C(=O)c2cc(C)cc(C)c2)C(C)(C)C)c1CCl [RG-115490]", "EC50": "> 50 µM"}
{"molecule": "CCc1c(OC)cccc1C(=O)NN(C(=O)c1cc(C)cc(C)c1)C(C)(C)C [RG-102240]", "EC50": "0.5 µM"}
{"molecule": "CCOC(=O)C(C)(C)N(NC(=O)c1cccc(OC)c1CC)C(=O)c1cc(C)cc(C)c1 [RG-115025]", "EC50": "39.3 µM"}
{"molecule": "CCc1ccc(C(=O)NN(C(=O)c2cc(C)cc(C)c2)C(C)(C)C)c(F)c1 [RG-101523]", "EC50": "2.37 µM"}
{"molecule": "COc1cc(C(=O)N(NC(=O)c2ccc3c(c2C)OCCO3)C(C)(C)C)cc(OC)c1O [RG-115009]", "EC50": "18.9 µM"}
{"molecule": "CCc1c(OC)cccc1C(=O)NN(C(=O)c1cc(C)cc(C)c1)C(C)(C)COC [RG-115006]", "EC50": "3.5 µM"}
{"molecule": "COc1cccc(C(=O)NN(C(=O)c2cc(C)cc(C)c2)C(C)(C)C)c1CO [RG-115371]", "EC50": "> 50 µM"}
{"molecule": "CCC(N(NC(=O)c1cccc(C)c1C)C(=O)c1cc(C)cc(C)c1)C(C)(C)C (centres unmarked) [RG-103309]", "EC50": "0.146 µM"}
{"molecule": "COc1cccc(C(=O)NN(C(=O)c2cc(C)cc(C)c2)C(C)(C)C)c1C [RG-102398]", "EC50": "0.627 µM"}
{"molecule": "CCc1c(OC)cccc1C(=O)NN(C(=O)c1cc(C)cc(/C=N/NC(N)=O)c1)C(C)(C)C [RG-115429]", "EC50": "8.68 µM"}
{"molecule": "COc1cccc(C(=O)NN(C(=O)c2cc(Cl)c(F)c(Cl)c2)C(C)(C)C)c1C [RG-101382]", "EC50": "0.588 µM"}
